FYI, the data here is from patent US20080113383A1.

Molecular target: EGLN3
Test: cell-based or functional assay
Where no end group is shown, it is not given here. [ ]: non-standard residue; d: D form. Aze = O=C(O)[C@@H]1CCN1
MEASURED_METRIC: Activity (%)
Please reply with the bare figure in % and do not write the unit itself.

Prompt: Give reported Activity (%) value for DTDLDLEALA[b‑thioproline]YIPADDDFQ [DTDLDLEALA5YIPADDDFQ]
Response: 11.1

Prompt: Give reported Activity (%) value for DTDLDTEALA[Aze]YIPADDDFQ [DTDLDTEALA8YIPADDDFQ]
Response: 80.1

Prompt: Give reported Activity (%) value for DTDLDVEAVA[Aze]YIPADDDFQ [DTDLDVEAVA8YIPADDDFQ]
Response: 20.6

Prompt: Give reported Activity (%) value for DTDLDLEALA[Aze]YIPADDDFQ [DTDLDLEALA8YIPADDDFQ]
Response: 169

Prompt: Give reported Activity (%) value for DTDLDTEAFA[Aze]YIPADDDFQ [DTDLDTEAFA8YIPADDDFQ]
Response: 18.7

Prompt: Give reported Activity (%) value for DTDLDVEAYA[Aze]YIPADDDFQ [DTDLDVEAYA8YIPADDDFQ]
Response: 33.5

Prompt: Give reported Activity (%) value for DTDLDTEAYA[Aze]YIPADDDFQ [DTDLDTEAYA8YIPADDDFQ]
Response: 29.7
